B1: CDC14A (parent)
chain: GPHPKSKIENGYPLHAPEAYFPYF

Variants of: B1
Experiment: protein stability index of a GFP-peptide fusion (GPS, HEK-293T) (PSI 1-6); higher = more stable;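 also: lentivirally expressed fusions sorted by FACS into six bins by GFP to DsRed ratio, PSI derived from sequencing read proportions per bin multiplied by bin number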
Details: c terminus: a fixed tail appended
This listing pairs variants with measured protein stability index.
readout-type: protein stability index

P13C: 1.97
P4C: 2.27
K5S: 2.56
F21Y: 2.44
A19Q: 2.48
G11N: 2.07
P2G: 1.74
P13T: 1.96
E9H: 2.29
P17C: 2
I8P: 2.56
A19P: 2.41
L14M: 2.41
P2S: 2.33
L14G: 2.65
S6R: 2.2
P13W: 1.58
Y12Q: 2.7
Y20F: 1.89
F24I: 2.92
S6I: 2.01
E9S: 2.21
A16H: 2.32
P17S: 1.87
Y12T: 3.07
Y12R: 2.58
Y12F: 1.78
H3F: 2.02
P13R: 2.06
P13M: 1.68
A16S: 2.14
H15W: 1.2
H15M: 1.96
H15G: 2.59
H15L: 1.76
P2H: 2.46
G11W: 1.55
N10T: 1.82
I8E: 3.29
A16K: 2.12
A16C: 2.84
L14T: 2.45
A19Y: 2.35
K7Q: 1.96
E9D: 1.96
P22E: 2.22
K5V: 1.92
Y23F: 2.23
N10H: 2.57
F21D: 3.55
I8Y: 1.88
A19G: 2.22
L14C: 1.67
K7H: 2.22
K7L: 2.06
Y23M: 2.32
P4T: 2
G11T: 1.75
A16E: 2.4
Y12N: 3.03
G11Q: 2.31
P13G: 2.39
E9I: 2.2
K5F: 1.29
E18D: 2.62
G1L: 2.05
P22W: 2.54
E9Y: 1.64
P17D: 2.71
A19V: 1.89
S6A: 2.36
I8K: 2.53
P4G: 2.22
N10F: 2.51
P2Q: 2.14
S6W: 1.88
